Values from patent US8383646B2

target: alpha2B receptor (Homo sapiens); construct: expressed in transfected cells; host or cells: NIH-3T3 cells; experiment: RSAT assay, alpha2B receptor; assay type: cell-based; settings: ratio of maximal effect to that of standard full agonist brimonidine (UK14304), value in parentheses
Measured quantity: Alpha 2B intrinsic activity (efficacy)
Form field (numeric): enter value without unit.

Compound | Alpha 2B intrinsic activity (efficacy)
c1cncc(C(c2cnc[nH]2)c2cccc3cccnc23)c1 (stereo not shown) | 1.29
c1cc(C(c2ccncc2)c2cnc[nH]2)c2cccnc2c1 (stereo not shown) | 0.65

c1cncc(C(c2cnc[nH]2)c2cccc3c2OCC3)c1 (stereo not shown) tested on alpha2B receptor (Homo sapiens) gave Alpha 2B intrinsic activity (efficacy): 1.13

c1cncc(C(c2cnc[nH]2)c2cccc3ncccc23)c1 (stereo not shown) tested on alpha2B receptor (Homo sapiens) gave Alpha 2B intrinsic activity (efficacy): 0.90

c1ccc(C(c2cnc[nH]2)c2cccc3ncccc23)nc1 (stereo not shown) tested on alpha2B receptor (Homo sapiens) gave Alpha 2B intrinsic activity (efficacy): 0.45

c1ccc(C(c2cnc[nH]2)c2cccc3cccnc23)nc1 (stereo not shown) tested on alpha2B receptor (Homo sapiens) gave Alpha 2B intrinsic activity (efficacy): 1.00

c1ccc(C(c2cnc[nH]2)c2cccc3c2OCC3)nc1 (stereo not shown) tested on alpha2B receptor (Homo sapiens) gave Alpha 2B intrinsic activity (efficacy): 0.87

* * *

biological target: alpha2B receptor (Homo sapiens, UniProt P18089); assay: RSAT assay, alpha2B receptor; conditions: transfected NIH-3T3 cells with Gq/i5, ND = not determinable at concentrations less than 10 micromolar, read-out: Alpha 2B potency (EC50)
Sequence (P18089 whole entry): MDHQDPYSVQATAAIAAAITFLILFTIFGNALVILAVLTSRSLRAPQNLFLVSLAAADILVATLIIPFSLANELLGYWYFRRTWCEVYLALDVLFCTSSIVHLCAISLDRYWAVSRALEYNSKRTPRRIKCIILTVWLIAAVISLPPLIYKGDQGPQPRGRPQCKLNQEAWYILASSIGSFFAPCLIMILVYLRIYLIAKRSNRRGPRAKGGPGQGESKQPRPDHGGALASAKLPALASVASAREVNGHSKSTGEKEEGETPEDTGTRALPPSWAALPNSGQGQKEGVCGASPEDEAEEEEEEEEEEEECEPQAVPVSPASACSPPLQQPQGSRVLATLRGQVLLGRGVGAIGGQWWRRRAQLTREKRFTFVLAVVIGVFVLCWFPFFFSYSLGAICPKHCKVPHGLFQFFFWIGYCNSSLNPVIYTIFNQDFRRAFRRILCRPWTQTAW
Measured quantity: pEC50
Expect pEC50 as a plain number equal to -log10 of the molar concentration.

Molecule | Measured quantity | Test result
c1ccc(C(c2cnc[nH]2)c2cccc3ncccc23)nc1 (stereo not shown) | pEC50 | 6.46

// pEC50 lookup, molecule = c1cncc(C(c2cnc[nH]2)c2cccc3ncccc23)c1 (stereo not shown) , result: 6.64

// pEC50 lookup, molecule = c1ccc(C(c2cnc[nH]2)c2cccc3c2OCC3)nc1 (stereo not shown) , result: 8.04

// pEC50 lookup, molecule = c1cncc(C(c2cnc[nH]2)c2cccc3cccnc23)c1 (stereo not shown) , result: 8.67

* * *

target: alpha2A receptor (Homo sapiens, UniProt P08913); assay: RSAT assay, alpha2A receptor; settings: transfected NIH-3T3 cells with Gq/i5, ND = not determinable at concentrations less than 10 micromolar, read-out: Alpha 2A potency (EC50)
Sequence (P08913 whole entry): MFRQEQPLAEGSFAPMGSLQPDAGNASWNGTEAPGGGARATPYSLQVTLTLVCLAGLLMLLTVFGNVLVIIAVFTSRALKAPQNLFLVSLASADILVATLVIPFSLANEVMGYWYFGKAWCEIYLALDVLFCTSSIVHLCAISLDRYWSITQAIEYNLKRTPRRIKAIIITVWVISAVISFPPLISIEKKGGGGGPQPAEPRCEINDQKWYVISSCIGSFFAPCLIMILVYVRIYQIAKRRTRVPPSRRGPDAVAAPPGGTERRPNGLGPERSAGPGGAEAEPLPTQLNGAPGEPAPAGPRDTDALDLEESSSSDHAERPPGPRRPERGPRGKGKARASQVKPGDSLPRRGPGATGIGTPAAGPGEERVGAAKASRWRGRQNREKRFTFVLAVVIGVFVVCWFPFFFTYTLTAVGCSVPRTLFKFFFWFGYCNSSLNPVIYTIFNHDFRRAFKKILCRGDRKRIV
pEC50: −log10 of the molar value.
Measured quantity: pEC50

Below, each entry is followed by its recorded pEC50 result.
Compound | pEC50
c1cncc(C(c2cnc[nH]2)c2cccc3c2OCC3)c1 (stereo not drawn) | 6.37
c1ccc(C(c2cnc[nH]2)c2cccc3ncccc23)nc1 (stereo not drawn) | < 5.00
c1ccc(C(c2cnc[nH]2)c2cccc3cccnc23)nc1 (stereo not drawn) | < 5.00
c1cc(C(c2ccncc2)c2cnc[nH]2)c2cccnc2c1 (stereo not drawn) | < 5.00
c1cncc(C(c2cnc[nH]2)c2cccc3cccnc23)c1 (stereo not drawn) | 6.24

// pEC50 lookup, compound = c1cncc(C(c2cnc[nH]2)c2cccc3ncccc23)c1 (stereo not drawn) , result: < 5.00

* * *

Reported EC50 values follow for various compounds
Target: alpha2C receptor (Homo sapiens, UniProt P18825)
Sequence (P18825 1-462): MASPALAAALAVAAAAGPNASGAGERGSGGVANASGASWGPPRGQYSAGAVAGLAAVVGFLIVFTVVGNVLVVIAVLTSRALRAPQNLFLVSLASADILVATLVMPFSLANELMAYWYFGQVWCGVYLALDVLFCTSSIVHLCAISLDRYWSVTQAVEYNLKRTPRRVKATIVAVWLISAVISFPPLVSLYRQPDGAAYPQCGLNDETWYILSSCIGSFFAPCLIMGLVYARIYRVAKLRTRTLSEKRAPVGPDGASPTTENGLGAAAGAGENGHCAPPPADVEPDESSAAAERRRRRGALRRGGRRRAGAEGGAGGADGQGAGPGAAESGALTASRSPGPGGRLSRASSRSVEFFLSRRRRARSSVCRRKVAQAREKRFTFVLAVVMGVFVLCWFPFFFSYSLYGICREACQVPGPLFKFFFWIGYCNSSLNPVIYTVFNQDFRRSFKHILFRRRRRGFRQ
Assay: RSAT assay, alpha2C receptor
Details: transfected NIH-3T3 cells with Gq/i5, ND = not determinable at concentrations less than 10 micromolar, read-out: Alpha 2C potency (EC50)

Compound | EC50
c1cc(C(c2ccncc2)c2cnc[nH]2)c2cccnc2c1 (stereo not drawn) | > 10 µM
c1cncc(C(c2cnc[nH]2)c2cccc3ncccc23)c1 (stereo not drawn) | > 10 µM

// EC50 lookup, compound = c1ccc(C(c2cnc[nH]2)c2cccc3ncccc23)nc1 (stereo not drawn) , result: > 10 µM

* * *

molecular target: alpha2B receptor (Homo sapiens, UniProt P18089); assay: RSAT assay, alpha2B receptor; conditions: transfected NIH-3T3 cells with Gq/i5, ND = not determinable at concentrations less than 10 micromolar, read-out: Alpha 2B potency (EC50)
Reported EC50 values follow for various compounds
Your answer should be a plain number; it is taken to be in nM.

Below, each entry is followed by its recorded EC50 result.
Compound | EC50 / nM
c1cc(C(c2ccncc2)c2cnc[nH]2)c2cccnc2c1 (stereo not drawn) | 771
c1ccc(C(c2cnc[nH]2)c2cccc3cccnc23)nc1 (stereo not drawn) | 22

Could you now consider this next compound?
// EC50 lookup, compound = c1cncc(C(c2cnc[nH]2)c2cccc3c2OCC3)c1 (stereo not drawn) , result: 10
